This collection of values is drawn from ChEMBL document CHEMBL1687833.

System: Pseudomonas aeruginosa
Test: Ratio of Kcat to Km for Pseudomonas aeruginosa strain PS 297 metallo-beta-lactamase IMP-1 expressed in Escherichia coli BL21(DE3) assessed as substrate hydrolysis using 100 uM nitrocefin
The following compounds are listed with their measured kcat/Km values.
Give the value, in units of ×10⁶ /M/s, as a plain number.

Look over these answered cases.
| COMPOUND | kcat/Km (×10⁶ /M/s) |
| --- | --- |
| CC(=O)OCC1=C(C(=O)O)N2C(=O)[C@@H](NC(=O)Cc3cccs3)[C@H]2SC1 | 2.4 |
| CC1(C)S[C@@H]2[C@H](NC(=O)[C@H](N)c3ccccc3)C(=O)N2[C@H]1C(=O)O | 4.8 |
| O=C(Cc1cccs1)N[C@@H]1C(=O)N2C(C(=O)O)=C(/C=C/c3ccc([N+](=O)[O-])cc3[N+](=O)[O-])CS[C@H]12 | 2.3 |

Please turn your attention to the following entry.
Supply kcat/Km value. Item: C[C@@H](O)[C@H]1C(=O)N2C(C(=O)O)=C(SCCNC=N)C[C@H]12 [IMIPENEM ANHYDROUS]
1.2

* * *

System: Pseudomonas aeruginosa
Assay: Activity of Pseudomonas aeruginosa strain PS 297 metallo-beta-lactamase IMP-18 expressed in Escherichia coli BL21(DE3) assessed as substrate hydrolysis using 100 uM nitrocefin
This listing pairs compounds with measured kcat.
Quick note: give the figure in s⁻¹, leave out the unit.

Please review the following examples before continuing.
| COMPOUND | kcat (s⁻¹) |
| --- | --- |
| CO/N=C(\C(=O)N[C@@H]1C(=O)N2C(C(=O)O)=C(COC(N)=O)CS[C@H]12)c1ccco1 | 0.9 |
| C[C@@H](O)[C@H]1C(=O)N2C(C(=O)O)=C(SCCNC=N)C[C@H]12 [IMIPENEM ANHYDROUS] | 17 |
| CO/N=C(\C(=O)N[C@@H]1C(=O)N2C(C(=O)O)=C(COC(C)=O)CS[C@H]12)c1csc(N)n1 | 0.7 |
| CC1(C)S[C@@H]2[C@H](NC(=O)[C@H](C(=O)O)c3ccsc3)C(=O)N2[C@H]1C(=O)O | 30 |
| CC1(C)S[C@@H]2[C@H](NC(=O)[C@H](N)c3ccccc3)C(=O)N2[C@H]1C(=O)O | 65 |
| CO/N=C(\C(=O)N[C@@H]1C(=O)N2C(C(=O)[O-])=C(C[N+]3(C)CCCC3)CS[C@H]12)c1csc(N)n1 | 0.35 |

Please look at this compound and report its kcat: `O=C(Cc1cccs1)N[C@@H]1C(=O)N2C(C(=O)O)=C(/C=C/c3ccc([N+](=O)[O-])cc3[N+](=O)[O-])CS[C@H]12`
55

Tell me measured kcat for `CC(C)(O/N=C(\C(=O)N[C@@H]1C(=O)N2C(C(=O)[O-])=C(C[n+]3ccccc3)CS[C@H]12)c1csc(N)n1)C(=O)O` please.
1

* * *

Reported kcat/Km values are given for each entry in this list.
Test system: Pseudomonas aeruginosa
Assay: Ratio of Kcat to Km for Pseudomonas aeruginosa strain PS 297 metallo-beta-lactamase IMP18 expressed in Escherichia coli BL21(DE3) assessed as substrate hydrolysis using 100 uM nitrocefin

Answered cases to consult:
| MOLECULE | kcat/Km |
| --- | --- |
| C[C@@H](O)[C@H]1C(=O)N2C(C(=O)O)=C(S[C@@H]3CN[C@H](C(=O)N(C)C)C3)[C@H](C)[C@H]12 [MEROPENEM] | 6 ×10³ /M/s |
| CCN1CCN(C(=O)N[C@@H](C(=O)N[C@@H]2C(=O)N3[C@@H]2SC(C)(C)[C@@H]3C(=O)O)c2ccccc2)C(=O)C1=O [PIPERACILLIN] | 5.1 ×10⁴ /M/s |

Find the measured kcat/Km of CO[C@@]1(NC(=O)C(C(=O)O)c2ccsc2)C(=O)N2[C@@H](C(=O)O)C(C)(C)S[C@@H]21 (stereo partly drawn) [TEMOCILLIN] and report it.
7.5 ×10² /M/s

* * *

Tested on: Pseudomonas aeruginosa
Assay: Activity of Pseudomonas aeruginosa strain PS 297 metallo-beta-lactamase IMP-18 expressed in Escherichia coli BL21(DE3) assessed as substrate hydrolysis using 100 uM nitrocefin
ASSAY_READOUT: kcat

Some compounds with known kcat results, for comparison:
| COMPOUND | kcat |
| --- | --- |
| CCN1CCN(C(=O)N[C@@H](C(=O)N[C@@H]2C(=O)N3[C@@H]2SC(C)(C)[C@@H]3C(=O)O)c2ccccc2)C(=O)C1=O | > 10 s⁻¹ |
| CO[C@@]1(NC(=O)C(C(=O)O)c2ccsc2)C(=O)N2[C@@H](C(=O)O)C(C)(C)S[C@@H]21 (stereo partly drawn) | > 0.75 s⁻¹ |

Given the compound `C[C@H]1[C@H](NC(=O)/C(=N\OC(C)(C)C(=O)O)c2csc(N)n2)C(=O)N1S(=O)(=O)O` , write its reported kcat.
< 0.01 s⁻¹
